Reference for the values: the supplement of paper PMC7125110

Listed below: KM values for each entry.
B1: glmS ribozyme (parent)
chain: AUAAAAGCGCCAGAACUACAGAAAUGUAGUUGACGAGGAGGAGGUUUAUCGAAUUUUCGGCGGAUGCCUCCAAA

Variants of: B1
Protocol Notes: KM; higher = weaker cofactor use; RNA array
Measurement Parameters: with glucosamine-6-phosphate
Answer in µM, number only, no unit symbol.

Answered cases to consult:
A39G U55C :: 3000
G13C A15U :: 2810
U54C C70U :: 507
A48U U56G :: 1590
A6U U31C :: 647

Which value of KM has been reported for U54A C58A in the records?
5450

# iterate: A33U U49G
44.7

Moving on to A39C C68U
1180

Record: A14C U31G
2550

Note, next up: G59U G66A
3110

Try A39U A42U U55G G66U next.
1100

Do the same for A39U C67U please
2220
